Reference source for all entries: patent EP2729445B1

- assay.text: Pharmacokinetics after intravenous and oral treatment, plasma LC-MS/MS
- Format: in vivo, male Han Wistar rats
- run.conditions: male, Han Wistar, plasma; rat, iv, 5 mg/kg; extrapolated, indicative only; read-out: CLp* (converted)
readout.label: clearance (mL/min)
Report the figure in mL/min without appending any unit label.

Exercise: Field request: clearance | item: O=C(O)c1ccc(C2(NC(=O)C3CC4(CCN3Cc3ccc(C(F)(F)F)cc3)CC4)CC2)cc1 (single isomer, unassigned)
Solution: 0.717

* * *

- assay.text: Pharmacokinetics after intravenous and oral treatment, plasma LC-MS/MS
- Assay type: in vivo, male Han Wistar rats
- run.conditions: male, Han Wistar, plasma; rat, po, 1 mg/kg
readout.label: AUC(0-t) (ng·h/mL)
Report the figure in ng·h/mL without appending any unit label.

Exercise: Field request: AUC(0-t) | item: O=C(O)c1ccc(C2(NC(=O)[C@H]3CC(F)(F)CCN3Cc3ccc(C(F)(F)F)cc3)CC2)cc1
Solution: 823

---
Exercise: Field request: AUC(0-t) | item: O=C(O)c1ccc(C2(NC(=O)C3CC(F)(F)CCN3Cc3ccc(C(F)(F)F)cc3)CC2)cc1 (single isomer, unassigned)
Solution: 1170

* * *

- subject.of.test: hEP4 receptors (Homo sapiens, UniProt P35408)
- Construct: membrane fraction used
- Sequence (P35408 whole entry): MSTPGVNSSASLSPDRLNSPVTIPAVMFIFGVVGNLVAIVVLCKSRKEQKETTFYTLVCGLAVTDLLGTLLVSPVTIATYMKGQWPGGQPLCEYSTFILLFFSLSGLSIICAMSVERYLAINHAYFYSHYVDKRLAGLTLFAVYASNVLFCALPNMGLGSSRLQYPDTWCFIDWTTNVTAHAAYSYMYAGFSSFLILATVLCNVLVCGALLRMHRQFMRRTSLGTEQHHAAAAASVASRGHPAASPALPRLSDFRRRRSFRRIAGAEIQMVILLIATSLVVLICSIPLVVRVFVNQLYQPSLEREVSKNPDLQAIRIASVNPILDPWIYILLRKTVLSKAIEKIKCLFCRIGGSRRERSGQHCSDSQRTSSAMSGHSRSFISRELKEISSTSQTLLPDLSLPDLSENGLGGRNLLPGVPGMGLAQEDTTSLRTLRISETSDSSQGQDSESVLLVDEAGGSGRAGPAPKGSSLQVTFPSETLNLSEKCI
- assay.text: cAMP assay (AlphaScreen) on human EP4 membrane of transfected cells, antagonism of PGE2
- run.conditions: HEK293 cell membrane stimulated with PGE2 3nM; read-out: functional IC50
As shown below, each of these compounds has a reported pIC50 value.
# pIC50: negative log10 of molar concentration; output just the value

Exercise: Missing value: pIC50, hEP4 receptors (Homo sapiens, UniProt P35408), entry O=C(O)c1ccc(C2(NC(=O)[C@H]3CC(F)(F)CCN3Cc3ccc(C(F)(F)F)cc3)CC2)cc1 . Fill in?
Solution: 7.55

Exercise: Repeat with O=C(O)c1ccc(C2(NC(=O)[C@H]3CCC4CC4N3Cc3ccc(C(F)(F)F)cc3)CC2)cc1 (some centres unmarked)
Solution: 7.37

Exercise: Repeat with O=C(O)c1ccc(C2(NC(=O)[C@H]3C[C@H]4C[C@H]4N3Cc3cccc(C(F)(F)F)c3)CC2)cc1
Solution: 7.80

Exercise: Repeat with O=C(O)c1ccc(C2(NC(=O)C3CC4CC4CN3Cc3ccc(C(F)(F)F)cc3)CC2)cc1 (single isomer, unassigned)
Solution: 7.94

Exercise: Repeat with C[C@H](NC(=O)C1CC(C)(C)CCN1Cc1ccc(C(F)(F)F)cc1)c1ccc(C(=O)O)cc1 (single isomer, unassigned)
Solution: 8.10

Exercise: Repeat with O=C(O)c1ccc(C2(NC(=O)[C@H]3CCCCN3Cc3ccc(C(F)(F)F)cc3)CC2)cc1
Solution: 7.49

Exercise: Repeat with C[C@H](NC(=O)[C@H]1CCC2CC2N1Cc1ccc(C(F)(F)F)cc1)c1ccc(C(=O)O)cc1 (some centres unmarked)
Solution: 7.38

Exercise: Repeat with C[C@H](NC(=O)C1CC2(CCN1Cc1ccc(C(F)(F)F)cc1)CC2)c1ccc(C(=O)O)cc1 (single isomer, unassigned)
Solution: 7.54

Exercise: Repeat with C[C@H](NC(=O)[C@H]1CCCN1Cc1ccc(C(F)(F)F)cc1)c1ccc(C(=O)O)cc1
Solution: 7.30

Exercise: Repeat with O=C(O)c1ccc(C2(NC(=O)C3CC(F)(F)CCN3Cc3ccc(C(F)(F)F)cc3)CC2)cc1 (single isomer, unassigned)
Solution: 7.96

---
Exercise: Missing value: pIC50, hEP4 receptors (Homo sapiens, UniProt P35408), entry O=C(O)c1ccc(C2(NC(=O)[C@H]3C[C@H]4C[C@H]4N3Cc3ccc(C(F)(F)F)cc3)CC2)cc1 . Fill in?
Solution: 7.68

Exercise: Repeat with O=C(O)c1ccc(C2(NC(=O)C3CC4(CCN3Cc3cccc(C(F)(F)F)c3)CC4)CC2)cc1 (single isomer, unassigned)
Solution: 8.40

Exercise: Repeat with C[C@H](NC(=O)[C@H]1CC(F)(F)CCN1Cc1ccc(C(F)(F)F)cc1)c1ccc(C(=O)O)cc1
Solution: 8.05

Exercise: Repeat with O=C(O)c1ccc(C2(NC(=O)C3CC4(CCN3Cc3ccc(C(F)(F)F)cc3)CC4)CC2)cc1 (single isomer, unassigned)
Solution: 7.66

* * *

- assay.text: Pharmacokinetics after intravenous and oral treatment, plasma LC-MS/MS
- Type: in vivo, male Han Wistar rats
- run.conditions: male, Han Wistar, plasma; rat, iv, 1 mg/kg
As shown below, each of these compounds has a reported AUC(0-t) value.
Report the figure in ng·h/mL without appending any unit label.

Exercise: Field request: AUC(0-t) | item: O=C(O)c1ccc(C2(NC(=O)C3CC(F)(F)CCN3Cc3ccc(C(F)(F)F)cc3)CC2)cc1 (single isomer, unassigned)
Solution: 1260

Okay, next one:
Exercise: Field request: AUC(0-t) | item: O=C(O)c1ccc(C2(NC(=O)[C@H]3CC(F)(F)CCN3Cc3ccc(C(F)(F)F)cc3)CC2)cc1
Solution: 966

* * *

- assay.text: Pharmacokinetics after intravenous and oral treatment, plasma LC-MS/MS
- Assay type: in vivo, male Han Wistar rats
- run.conditions: male, Han Wistar, plasma; rat, po, 1 mg/kg; extrapolated, indicative only
readout.label: half-life (h)
Report the figure in h without appending any unit label.

Exercise: Field request: half-life | item: O=C(O)c1ccc(C2(NC(=O)[C@H]3CC(F)(F)CCN3Cc3ccc(C(F)(F)F)cc3)CC2)cc1
Solution: 14.1

Okay, next one:
Exercise: Field request: half-life | item: O=C(O)c1ccc(C2(NC(=O)C3CC(F)(F)CCN3Cc3ccc(C(F)(F)F)cc3)CC2)cc1 (single isomer, unassigned)
Solution: 5.1

* * *

As shown below, each of these compounds has a reported Cmax value.
- assay.text: Pharmacokinetics after intravenous and oral treatment, plasma LC-MS/MS
- Assay type: in vivo, male Han Wistar rats
- run.conditions: male, Han Wistar, plasma; rat, po, 1 mg/kg
Answer with the figure and its unit, nothing else.

Exercise: Field request: Cmax | item: O=C(O)c1ccc(C2(NC(=O)C3CC(F)(F)CCN3Cc3ccc(C(F)(F)F)cc3)CC2)cc1 (single isomer, unassigned)
Solution: 556 ng/mL

Okay, next one:
Exercise: Field request: Cmax | item: O=C(O)c1ccc(C2(NC(=O)[C@H]3CC(F)(F)CCN3Cc3ccc(C(F)(F)F)cc3)CC2)cc1
Solution: 318 ng/mL

* * *

- assay.text: Pharmacokinetics after intravenous and oral treatment, plasma LC-MS/MS
- Type: in vivo, male Han Wistar rats
- run.conditions: male, Han Wistar, plasma; rat, po, 5 mg/kg
- Protocol: The pharmacokinetics of compounds E7, E17 and E18, were studied in male Han Wistar rats. The rats were treated intravenously and orally (n=3 for each dose route) with compounds formulated as solutions. The rats were fitted with a jugular cannula for serial sampling. A full profile was acquired from each rat. Plasma extracts were quantitatively analyzed using a specific and sensitive LC-MS/MS bioanalytical method. […]
readout.label: Tmax (min)
Report the figure in min without appending any unit label.

Exercise: Field request: Tmax | item: O=C(O)c1ccc(C2(NC(=O)C3CC4(CCN3Cc3ccc(C(F)(F)F)cc3)CC4)CC2)cc1 (single isomer, unassigned)
Solution: 30

* * *

- assay.text: Pharmacokinetics after intravenous and oral treatment, plasma LC-MS/MS
- Format: in vivo, male Han Wistar rats
- run.conditions: male, Han Wistar, plasma; rat, iv, 5 mg/kg; extrapolated, indicative only
readout.label: half-life (h)
Report the figure in h without appending any unit label.

Exercise: Field request: half-life | item: O=C(O)c1ccc(C2(NC(=O)C3CC4(CCN3Cc3ccc(C(F)(F)F)cc3)CC4)CC2)cc1 (single isomer, unassigned) [Example E7]
Solution: 7.4

* * *

- subject.of.test: hEP4 receptors (Homo sapiens)
- Construct: membrane fraction used
- assay.text: [3H]-Prostaglandin E2 membrane binding assay
- run.conditions: read-out: Binding pKi (converted)
As shown below, each of these compounds has a reported log10(Ki) value.
Hey, these are logged values: log10 of Ki, nM being the unit before logging.

Sample answers from the record:
Exercise: Missing value: log10(Ki), hEP4 receptors (Homo sapiens), entry C[C@H](NC(=O)C1CC2(CCN1Cc1ccc(C(F)(F)F)cc1)CC2)c1ccc(C(=O)O)cc1 (single isomer, unassigned) . Fill in?
Solution: 1.60

Exercise: Repeat with O=C(O)c1ccc(C2(NC(=O)[C@H]3CCC4CC4N3Cc3ccc(C(F)(F)F)cc3)CC2)cc1 (some centres unmarked)
Solution: 0.50

Exercise: Repeat with C[C@H](NC(=O)[C@H]1CCC2CC2N1Cc1ccc(C(F)(F)F)cc1)c1ccc(C(=O)O)cc1 (some centres unmarked)
Solution: 0.20

Exercise: Repeat with O=C(O)c1ccc(C2(NC(=O)[C@H]3C[C@H]4C[C@H]4N3Cc3cccc(C(F)(F)F)c3)CC2)cc1
Solution: 0.40

Exercise: Repeat with O=C(O)c1ccc(C2(NC(=O)C3CC4(CCN3Cc3ccc(C(F)(F)F)cc3)CC4)CC2)cc1 (single isomer, unassigned)
Solution: 1.50

Exercise: Repeat with O=C(O)c1ccc(C2(NC(=O)[C@H]3CC(F)(F)CCN3Cc3ccc(C(F)(F)F)cc3)CC2)cc1
Solution: 1.10

---
Exercise: Missing value: log10(Ki), hEP4 receptors (Homo sapiens), entry O=C(O)c1ccc(C2(NC(=O)C3CC4CC4CN3Cc3ccc(C(F)(F)F)cc3)CC2)cc1 (single isomer, unassigned) . Fill in?
Solution: 1.00

Exercise: Repeat with O=C(O)c1ccc(C2(NC(=O)C3CC(F)(F)CCN3Cc3ccc(C(F)(F)F)cc3)CC2)cc1 (single isomer, unassigned)
Solution: 0.80
